test system: myeloid leukemia patient primary cells Pat.3; assay: cell viability (% survival relative to DMSO control); higher = less cytotoxic; settings: 10 nM; 72 h
Exercise: state measured cell viability for each of the compounds provided.
Numbers only, in %.

Answered cases to consult:
Prompt line: Fill in cell viability for record Clc1ccc(COC(Cn2ccnc2)c2ccc(Cl)cc2Cl)cc1 (stereo not given) [Econazole]
Response line: 89.5

Prompt line: Name the recorded cell viability of the item CCN(CC)CCN(Cc1ccc(-c2ccc(C(F)(F)F)cc2)cc1)C(=O)Cn1c(SCc2ccc(F)cc2)nc(=O)c2c1CCC2 [Darapladib] in your answer.
Response line: 90.8

Prompt line: Please give measured cell viability of the following entry: CC12CCC(O)CC1CCC1C2CCC2(C)C(C3=CC(=O)OC3)CCC12O (stereo not given) [Digitoxigenin]
Response line: 90

I need cell viability for every entry listed below, if you could help.
1. C[C@H]1O[C@@H](O[C@H]2[C@@H](O)C[C@H](O[C@H]3[C@@H](O)C[C@H](O[C@H]4CC[C@@]5(C)[C@H](CC[C@@H]6[C@@H]5C[C@@H](O)[C@]5(C)[C@@H](C7=CC(=O)OC7)CC[C@]65O)C4)O[C@@H]3C)O[C@@H]2C)C[C@H](O)[C@@H]1O [Digoxin]
2. Cc1noc2c1-c1ccccc1C(c1ccc(Cl)cc1)=N[C@H]2CC(N)=O [CPI-0610]

Response line:
81.3
79.3
